Cited source: PubChem BioAssay AID1851

# ASSAY TARGET: Cytochrome P450 2C9 (Homo sapiens) (UniProt P11712)
# Sequence (P11712 whole entry, looked up): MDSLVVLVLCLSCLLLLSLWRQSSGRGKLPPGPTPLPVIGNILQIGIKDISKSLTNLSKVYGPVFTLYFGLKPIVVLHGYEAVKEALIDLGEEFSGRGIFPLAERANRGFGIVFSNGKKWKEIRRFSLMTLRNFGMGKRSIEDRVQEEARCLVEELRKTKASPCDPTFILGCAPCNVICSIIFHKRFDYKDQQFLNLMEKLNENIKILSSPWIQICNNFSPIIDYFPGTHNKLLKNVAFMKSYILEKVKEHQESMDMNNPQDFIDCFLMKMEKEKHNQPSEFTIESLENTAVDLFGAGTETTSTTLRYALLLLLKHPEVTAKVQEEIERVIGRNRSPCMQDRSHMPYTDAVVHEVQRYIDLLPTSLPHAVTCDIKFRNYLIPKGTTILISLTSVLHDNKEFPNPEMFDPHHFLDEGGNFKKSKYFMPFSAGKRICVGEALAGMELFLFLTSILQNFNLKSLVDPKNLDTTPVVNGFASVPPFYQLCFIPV
# ASSAY NAME: Cytochrome panel assay with activity outcomes
# SETTINGS: recombinant CYP, pro-luciferin dealkylation, luminescence, p450-cyp2c9; series mostly up to 57.1 µM
Hit rate of the full screen: of about 16,000 compounds, about 4,000 (25%) were called active. Roughly 26% stayed inconclusive and do not appear here. The call rests on the fitted dose curve; in most records, active means well fitted curve in the direction sought with a large enough effect; inconclusive means small, poorly fitted or top-dose-only effect, or effect the other way; inactive means no such curve, though single readings can be large or run the other way. The list is a sample of the results.
The reply should name one outcome from yes (1) (active), no (0) (inactive)

Consider the following illustrative entries.
CCC[C@@H]1C[C@@]1(CCC)C(NC(=O)c1ccco1)c1ccc(Cl)cc1 (stereo not given in full)    yes (1)
CN[C@@H]1[C@H](O[C@H]2[C@@H](O[C@@H]3[C@@H](O)[C@@H](O)[C@@H](N=C(N)N)[C@@H](O)[C@@H]3N=C(N)N)O[C@@H](C)[C@]2(O)CO)O[C@H](CO)[C@@H](O)[C@@H]1O    no (0)
CN(C)CCCO[C@H]1[C@@H]2OC(C)(C)O[C@@H]2O[C@@H]1[C@H](O)CO    no (0)
CCN(CCCc1ccccc1)CCCc1ccccc1    no (0)
CCn1c(=O)[nH]c2ccccc2c1=O    no (0)
CCCC[C@@H]1C[C@H]1C(NC(=O)c1ccco1)c1ccc(Cl)cc1 (stereo not given in full)    yes (1)
CC1CCCC(n2c(=S)[nH]c3ccccc3c2=O)C1C (stereo not given)    yes (1)
CCCC[C@@H]1C[C@H]1C(NC(=O)c1ccco1)c1ccc(C(=O)OC)cc1 (stereo not given in full)    yes (1)

query: Test call, this molecule: `CCN(CC)CCOc1ccc(Cc2ccccc2)cc1`
result: yes (1)

query: What was the test verdict on `CCN(CC)CCOC(=O)C(c1ccccc1)c1ccccc1` ?
result: no (0)

###

# ASSAY TARGET: Cytochrome P450 2C9 (Homo sapiens) (UniProt P11712)
# ASSAY NAME: Cytochrome panel assay with activity outcomes
# SETTINGS: recombinant CYP, pro-luciferin dealkylation, luminescence, p450-cyp2c9; series mostly up to 57.1 µM
Screen size: about 16,000 compounds; about 4,000 (25%) were called active. Inconclusive results (about 26%) are left out. Calls follow the shape of the dose curve; as a rule, active = well fitted curve in the direction sought with a large enough effect; inconclusive = small, poorly fitted or top-dose-only effect, or effect the other way; inactive = no such curve, though single readings can be large or run the other way. These entries were drawn from the full list.
Your reply should match one of these outcome classes. y = active, n = inactive

CCC[C@@H]1O[C@@H]2C[C@@H]3[C@H]4CCC5=CC(=O)C=C[C@@]5(C)[C@H]4[C@H](O)C[C@@]3(C)[C@@]2(C(=O)CO)O1    n

query: // outcome(item) with item = `O=C(NCc1ccco1)Nc1cccs1`
result: y

query: Hey, what did the test say about `N#Cc1c(-c2ccccc2)nc(-c2ccccc2)[nH]c1=O` ?
result: y

query: Any idea what this test logged for O=C1C(Cc2ccccc2)NC(=S)N1c1ccccc1 (stereo not drawn) ?
result: n

###

# ASSAY TARGET: Cytochrome P450 2C9 (Homo sapiens)
# ASSAY NAME: Cytochrome panel assay with activity outcomes
# SETTINGS: recombinant CYP, pro-luciferin dealkylation, luminescence, p450-cyp2c9; series mostly up to 57.1 µM
Out of some 16,000 compounds screened, about 4,000 (25%) were called active. Roughly 26% stayed inconclusive and do not appear here. Calls come from the whole dose curve; as a rule, active = well fitted curve in the direction sought with a large enough effect; inconclusive = small, poorly fitted or top-dose-only effect, or effect the other way; inactive = no such curve, though single readings can be large or run the other way. These entries were drawn from the full list.
// classify into class 1 (active), class 0 (inactive)

COCCn1c(=O)c(-c2cccc(C#N)c2)nc2cnc(OCc3ccccc3)nc21    class 1

query: Per the assay record, what outcome was assigned to `CCOC(=O)CSc1n[nH]c(-c2cccnc2)n1` ?
result: class 0

query: State the result this test recorded for `COc1ccc2[nH]cc(C=O)c2c1` .
result: class 0

query: Can you look up the reported call for `Cc1nc2cnc(Oc3cccc(Cl)c3)nc2n(C2CC2)c1=O` for me?
result: class 1

###

# ASSAY TARGET: Cytochrome P450 2C9 (Homo sapiens) (UniProt P11712)
# ASSAY NAME: Cytochrome panel assay with activity outcomes
# SETTINGS: recombinant CYP, pro-luciferin dealkylation, luminescence, p450-cyp2c9; series mostly up to 57.1 µM
Out of some 16,000 compounds screened, about 4,000 (25%) were called active. Not shown: some 26% with an inconclusive outcome. The call rests on the fitted dose curve; in most records, active means well fitted curve in the direction sought with a large enough effect; inconclusive means small, poorly fitted or top-dose-only effect, or effect the other way; inactive means no such curve, though single readings can be large or run the other way. Not all results are given here.
Thanks in advance; please answer with one of these: active, inactive

Look over these answered cases.
O=[N+]([O-])/C=C/c1cn(Cc2ccccc2)c2ccccc12    active
O=C(Nc1ccccc1-c1nc2ccccc2[nH]1)c1ccc(S(=O)(=O)N2CCCCC2)cc1    active
CCCC[C@@H]1C[C@H]1C(NC(=O)c1cccs1)c1ccc(-c2ccccc2)cc1 (stereo partly drawn)    active

query: Given `CC(C)COC[C@H](CN(Cc1ccccc1)c1ccccc1)N1CCCC1` , state the outcome it received in this test.
result: inactive

query: Tell me the assay call for `Cc1nnc(-c2cccc(Br)c2)c2cn(-c3ccc(Br)cc3)nc12` please.
result: active

query: # outcome recorded in this test, key = CCOC(=O)C1=C(C)NC(=O)NC1c1ccoc1 (stereo not drawn)
result: active

query: Assay result, entry `O=C(O)CN1CCN(Cc2ccccc2Cl)C1=O` — outcome?
result: inactive

query: Identify the outcome logged in this assay for the compound shown: `COc1ccc2ccccc2c1/C=C\C(=O)c1ccccc1`
result: active

query: Hi team, can someone confirm the assay call for `Cc1nnc(-c2cccc(Br)c2)c2cn(-c3ccccc3Cl)nc12` ?
result: active

query: # outcome recorded in this test, key = CS(=O)(=O)N1CCN(c2ccc(C(=O)NC3C4CC5CC(C4)CC3C5)cc2[N+](=O)[O-])CC1 (stereo not drawn)
result: active

query: // param item: `COc1ccc(-n2c(=O)c(-c3cccc(C#N)c3)nc3cnc(N4CCNCC4)nc32)cc1` ; yields the recorded call
result: inactive

query: Which result was noted for this compound in the test: `Cc1ccc(NC(=O)CCc2ccc(S(=O)(=O)NC3CCCCC3)cc2)cc1`
result: active

query: Call for entry `CO/N=C(/CNC(=O)c1ccc(Cl)cc1Cl)c1ccc(Cl)cc1` :
result: active

query: Test call for this compound, please: `Cc1nc(SCc2cccc(Oc3ccccc3)c2)n[nH]1`
result: active

query: What outcome does the record of this test show for `Cc1cc(C)nc(NC(=O)CCCC(=O)O)c1` ?
result: inactive

###

# ASSAY TARGET: Cytochrome P450 2C9 (Homo sapiens)
# ASSAY NAME: Cytochrome panel assay with activity outcomes
# SETTINGS: recombinant CYP, pro-luciferin dealkylation, luminescence, p450-cyp2c9; series mostly up to 57.1 µM
Screen size: about 16,000 compounds; about 4,000 (25%) were called active. Roughly 26% stayed inconclusive and do not appear here. The call rests on the fitted dose curve; in most records, active means well fitted curve in the direction sought with a large enough effect; inconclusive means small, poorly fitted or top-dose-only effect, or effect the other way; inactive means no such curve, though single readings can be large or run the other way. The list is a sample of the results.
Return exactly one item of YES = active, NO = inactive

# count of solved cases: 4
Cc1cc(C(=O)N[C@H](c2ccccc2)[C@@]2(C)C[C@@H]2[C@@H](C)C(=O)Nc2ccc3ccccc3c2)n(C)n1    YES
Cc1ccc(Cl)cc1-n1c(=O)cc(N2CC(C)OC(C)C2)[nH]c1=O (stereo not given)    NO
O=P(O)(CCc1ccccc1)C(O)c1ccccc1 (stereo not given)    NO
CN1CCN(c2nc3cc(C(F)(F)F)ccc3n3cccc23)CC1    NO

query: Name the outcome recorded for `Cc1cc2nc(CCN(C(=S)NCC(C)C)C3CCCC3)[nH]c2cc1C` in the assay.
result: YES

query: I'd appreciate the recorded outcome for `COc1cc(OC)c2c(c1)C(=O)c1cc(OC)cc(OC)c1C2=O` from this test.
result: NO

query: Per the assay record, what outcome was assigned to `COc1ccc(NC(=O)N2CC[C@@]3(CCCN(C(=O)c4cc(C(F)(F)F)cc(C(F)(F)F)c4)C3)C2)cc1` ?
result: NO

query: Could you please tell me the result logged for `FC(F)(F)c1ccc(N2CCOCC2)c(Nc2nc3ccccc3n3cnnc23)c1` in this assay?
result: YES

query: Recorded test call requested for `O=C(Cc1ccccc1)NCCSCc1ccc(Cl)cc1`
result: YES

query: Can you look up the reported call for `O=C(Cc1ccccc1[N+](=O)[O-])NCCSCc1c(F)cccc1Cl` for me?
result: NO

###

# ASSAY TARGET: Cytochrome P450 2C9 (Homo sapiens)
# ASSAY NAME: Cytochrome panel assay with activity outcomes
# SETTINGS: recombinant CYP, pro-luciferin dealkylation, luminescence, p450-cyp2c9; series mostly up to 57.1 µM
Screen size: about 16,000 compounds; about 4,000 (25%) were called active. Not shown: some 26% with an inconclusive outcome. Calls follow the shape of the dose curve; as a rule, active = well fitted curve in the direction sought with a large enough effect; inconclusive = small, poorly fitted or top-dose-only effect, or effect the other way; inactive = no such curve, though single readings can be large or run the other way. Not all results are given here.
Entry note: the call must match one of active, inactive

Consider the worked cases shown below.
COc1ccccc1CN1CCC2(CC1)CCN(C(=O)c1c(C)noc1C)CC2    inactive
Cc1cc(C(=O)N/N=C/c2cccc(OC(=O)c3ccco3)c2)n[nH]1    active
COc1cccc(/C=N/NC(=O)c2cc(-c3cccn3C)n[nH]2)c1    inactive

query: Call for entry `Cc1ccc(NCC(=O)N/N=C\c2ccc([N+](=O)[O-])o2)cc1` :
result: inactive

query: Hello, I am checking results. What call was entered for Cc1cc(NC(=O)C2C3C(=O)N(Cc4ccc(Cl)cc4)C(C(=O)NC(C)(C)C)C34C=CC2(C)O4)no1 (stereo not given) ?
result: inactive
